Assay: Sublimation temperature Tsubl in sublimation apparatus
Format: physicochemical
Details: 10−5 mbar
outcome measure: Sublimation temperature Tsubl

Here's what some known entries look like.
1) N#C/C(C(=O)c1cc(C(F)(F)F)cc(C(F)(F)F)c1)=C(/[O][Cu][O]/C(=C(/C#N)C(=O)c1cc(C(F)(F)F)cc(C(F)(F)F)c1)c1cc(C(F)(F)F)cc(C(F)(F)F)c1)c1cc(C(F)(F)F)cc(C(F)(F)F)c1 : 261 °C
2) O=C(C=C([O-])C(F)(F)F)C(F)(F)F.O=C(C=C([O-])C(F)(F)F)C(F)(F)F.O=C(C=C([O-])C(F)(F)F)C(F)(F)F.[Bi+3] : decomposition
3) CC(=O)/C=C(\[O-])C(F)(F)F.CC(=O)/C=C(\[O-])C(F)(F)F.[Cu+2] [CC-2, Cu(tfac)2] : 95-100 °C
4) CC(C)(C)C(=O)C=C([O-])C(F)(F)C(F)(F)C(F)(F)F.CC(C)(C)C(=O)C=C([O-])C(F)(F)C(F)(F)C(F)(F)F.CC(C)(C)C(=O)C=C([O-])C(F)(F)C(F)(F)C(F)(F)F.[Bi+3] : 120 °C

Please state, for each entry, its recorded Sublimation temperature Tsubl.
1. CC(=O)C=C([O-])C(F)(F)F.CC(=O)C=C([O-])C(F)(F)F.CC(=O)C=C([O-])C(F)(F)F.[Bi+3] [CC-3, Bi(tfac)3]
2. CC(C)(C)/C([O-])=C/C(=O)C(F)(F)C(F)(F)C(F)(F)F.CC(C)(C)/C([O-])=C/C(=O)C(F)(F)C(F)(F)C(F)(F)F.CC(C)(C)/C([O-])=C/C(=O)C(F)(F)C(F)(F)C(F)(F)F.[La+3]
3. N#C/C(C(=O)C(F)(F)C(F)(F)F)=C(/[O][Cu][O]/C(=C(/C#N)C(=O)C(F)(F)C(F)(F)F)c1ccc(-c2cc(C(F)(F)F)cc(C(F)(F)F)c2)cc1)c1ccc(-c2cc(C(F)(F)F)cc(C(F)(F)F)c2)cc1
4. CC(=O)C=C(C)[O-].CC(=O)C=C(C)[O-].[Cu+2]
5. C/C(C(=O)c1ccnc(C(F)(F)F)c1)=C(/[O][Cu][O]/C(=C(/C)C(=O)c1ccnc(C(F)(F)F)c1)c1ccnc(C(F)(F)F)c1)c1ccnc(C(F)(F)F)c1

Result:
["decomposition", "170 °C", "decomposition", "110-120 °C", "decomposition"]

====

Field: Rate onset temperature TRO. Provide a value for each of the molecules that follow.
Assay: Rate onset temperature TRO in VTE source with QCM detector
Assay type: physicochemical
Details: 15 K/min, less than 10−5 mbar
Give bare numbers, in °C.

Please state, for each entry, its recorded Rate onset temperature TRO.
1. CC(C)(C)/C([O-])=C/C(=O)C(F)(F)C(F)(F)C(F)(F)F.CC(C)(C)/C([O-])=C/C(=O)C(F)(F)C(F)(F)C(F)(F)F.CC(C)(C)/C([O-])=C/C(=O)C(F)(F)C(F)(F)C(F)(F)F.[La+3]
2. N#C/C(C(=O)c1cc(C(F)(F)F)cc(C(F)(F)F)c1)=C(/[O][Cu][O]/C(=C(/C#N)C(=O)c1cc(C(F)(F)F)cc(C(F)(F)F)c1)c1cc(C(F)(F)F)cc(C(F)(F)F)c1)c1cc(C(F)(F)F)cc(C(F)(F)F)c1

Result:
101
204

====

Field: Tdec. Provide a value for each of the compounds that follow.
Assay: Decomposition temperature Tdec by TGA-DSC
Assay type: physicochemical
Details: onset of decomposition in TGA, 10 K/min, nitrogen

1) CC(=O)C=C(C)[O-].CC(=O)C=C(C)[O-].[Cu+2] : >280 °C

Please state, for each entry, its recorded Tdec.
1. N#C/C(C(=O)C(F)(F)C(F)(F)F)=C(/[O][Cu][O]/C(=C(/C#N)C(=O)C(F)(F)C(F)(F)F)c1ccc(-c2cc(C(F)(F)F)cc(C(F)(F)F)c2)cc1)c1ccc(-c2cc(C(F)(F)F)cc(C(F)(F)F)c2)cc1
2. CC(=O)/C=C(\[O-])C(F)(F)F.CC(=O)/C=C(\[O-])C(F)(F)F.[Cu+2] [CC-2, Cu(tfac)2]

Result:
>330 °C
>185 °C

Please state, for each entry, its recorded Tdec.
1. CC(=O)C=C([O-])C(F)(F)F.CC(=O)C=C([O-])C(F)(F)F.CC(=O)C=C([O-])C(F)(F)F.[Bi+3] [CC-3, Bi(tfac)3]
2. C/C(C(=O)c1ccnc(C(F)(F)F)c1)=C(/[O][Cu][O]/C(=C(/C)C(=O)c1ccnc(C(F)(F)F)c1)c1ccnc(C(F)(F)F)c1)c1ccnc(C(F)(F)F)c1
3. CC(C)(C)/C([O-])=C/C(=O)C(F)(F)C(F)(F)C(F)(F)F.CC(C)(C)/C([O-])=C/C(=O)C(F)(F)C(F)(F)C(F)(F)F.CC(C)(C)/C([O-])=C/C(=O)C(F)(F)C(F)(F)C(F)(F)F.[La+3]
4. CC(C)(C)C(=O)C=C([O-])C(F)(F)C(F)(F)C(F)(F)F.CC(C)(C)C(=O)C=C([O-])C(F)(F)C(F)(F)C(F)(F)F.CC(C)(C)C(=O)C=C([O-])C(F)(F)C(F)(F)C(F)(F)F.[Bi+3]
5. N#C/C(C(=O)c1cc(C(F)(F)F)cc(C(F)(F)F)c1)=C(/[O][Cu][O]/C(=C(/C#N)C(=O)c1cc(C(F)(F)F)cc(C(F)(F)F)c1)c1cc(C(F)(F)F)cc(C(F)(F)F)c1)c1cc(C(F)(F)F)cc(C(F)(F)F)c1

Result:
1. >100 °C
2. >300 °C
3. >260 °C
4. >200 °C
5. >319 °C

Hello, the source for this data is patent US20240381760A1, in case you need it.
